- Tested on: PF3D7_0420300 AP2 domain 1 (GST-tagged)
- assaySummary: gcPBM binding intensity (ln(normalized median fluorescence intensity)); higher = stronger DNA binding
The full ranking holds about 25,000 sequences; the median of “ln(normalized median fluorescence intensity)” is about 9.3, and the highest 2% start at about 10. Only a selection was taken, and the highest values are over-represented in it overall.

# sequenceEntry, gcPBM binding intensity (ln)
rows = [
    ("TATAAAAAATATAATTGTACATAAAGGTTAAAATGT [XGTACX_site6138]", 9.47),
    ("AAGGGAAAATAATAAAAGAAAAAGAAAAAAAAAAAA [CACACA_negctrl_site1518]", 9.21),
    ("CATTCAAACAAAAAAAGTACTCATCACATAATATAT [XGTACX_site1251]", 9.44),
    ("TATATATAGAAACACACACACACATATATATATATT [CACACA_site2539]", 10.1),
    ("TATATATATTTATGCACACAAAATATATTATATAAT [CACACA_site5955]", 9.27),
    ("AAGAAAAAAATTTATACAAGAATTTTTTATTATTAA [TGCATGCA_negctrl_site587]", 8.9),
    ("AGAAATATCTAATTGTGTACTCAAGAAAAAGTTACG [XGTACX_site372]", 9.29),
    ("TTTTCAATTTTTTATGAACACACAAAAAAAAAAAAA [CACACA_site8808]", 8.77),
    ("TAATAATAGAAACACACACACATAGACATATATATA [CACACA_site1307]", 10.1),
    ("TATATATATGTATATGTGCACAGTTTTCTTATTAAA [GTGCAC_site9990]", 9.24),
    ("AAAAAAAAAAAACATACACACATACATACCTATATA [CACACA_site6575]", 9.78),
    ("ATTATAAACCATAATTAACACACAAAATAAGTTACA [CACACA_site9057]", 9.75),
    ("ATAAATAAATAAAAGCGTACATATATATAAAATATA [XGTACX_site8107]", 9.39),
    ("AAATATTATACAAAAAAAAAAAAAAAAAAAATATAT [CACACA_negctrl_site52]", 9.39),
    ("AAGGGGTAAAGAAAAACACACAAAAAATAAAAATAT [CACACA_site361]", 9.65),
    ("TCGGGAGGGGGGAAGCGTACATATATAAAATTATTA [XGTACX_site4683]", 10.2),
    ("CAAATACATAGACACACACACATATACATATTTATA [CACACA_site7610]", 10),
    ("ATAATATAGAAACACACACACATATATATATACATT [CACACA_site555]", 10.2),
    ("TTATTTAGTATATTATGTACATACAATGCCTGGGAA [XGTACX_site4578]", 9.21),
]

----------
Here, each record is paired with measured gcPBM binding intensity (ln) data.
- System: PF3D7_0420300 AP2 domain 1 (GST-tagged)
- assaySummary: gcPBM binding intensity (ln(normalized median fluorescence intensity)); higher = stronger DNA binding
Over roughly 25,000 sequences, “ln(normalized median fluorescence intensity)” has its median near 9.3; the highest 2% begin near 10. Only a selection was taken, and the highest values are over-represented in it overall.
measuredParameter: gcPBM binding intensity (ln)

# sequenceEntry, experimentalSystem, experimentalValue
data = [
    ("AATACAATATAGTGAAAAATAATTAAATACAATAAG [XGTACX_negctrl_site161]", "PF3D7_0420300 AP2 domain 1 (GST-tagged)", 9.6),
    ("AATTATCAGGAATGATGTACTGAAATAAAAAAAAAA [XGTACX_site3280]", "PF3D7_0420300 AP2 domain 1 (GST-tagged)", 9.11),
    ("GATAAATTAAAACACACACACATATATATATATATA [CACACA_site3962]", "PF3D7_0420300 AP2 domain 1 (GST-tagged)", 9.67),
    ("TATTTATAATTATAATAATATATATATATATATATA [TGCATGCA_negctrl_site173]", "PF3D7_0420300 AP2 domain 1 (GST-tagged)", 8.83),
    ("ATAAAATTTATATAAGCACACAAATATATATTTATA [CACACA_site9083]", "PF3D7_0420300 AP2 domain 1 (GST-tagged)", 9.29),
    ("AAAAACAACACAGATAAATTAACACACACACACATA [XGTACX_negctrl_site588]", "PF3D7_0420300 AP2 domain 1 (GST-tagged)", 10.2),
    ("AGAGTATATAAAGTAACACACAATAAAATAAAATAA [CACACA_site2328]", "PF3D7_0420300 AP2 domain 1 (GST-tagged)", 9.82),
    ("ATTATATATAAGAAGAGTACTGAATATGTGCAATAT [XGTACX_site4471]", "PF3D7_0420300 AP2 domain 1 (GST-tagged)", 9.55),
    ("CACGCACGCAGACACACACACACACGCACATATATA [CACACA_site6303]", "PF3D7_0420300 AP2 domain 1 (GST-tagged)", 10.3),
    ("CACATACACATACACATACACACGCATAGAAACATA [CACACA_site2136]", "PF3D7_0420300 AP2 domain 1 (GST-tagged)", 9.79),
    ("TATAAAAATAAGCACACACACAAATATATATTTATT [CACACA_site922]", "PF3D7_0420300 AP2 domain 1 (GST-tagged)", 10.1),
    ("CGCACACGCAGACACACACACACATATAAATAAATA [CACACA_site7101]", "PF3D7_0420300 AP2 domain 1 (GST-tagged)", 9.86),
    ("AACATACATAGACACACACACACACGCACACGCACA [CACACA_site6373]", "PF3D7_0420300 AP2 domain 1 (GST-tagged)", 10.3),
    ("TAAATACAAAAATGCACACGAAAAGTAATATATATA [CACACA_site6151]", "PF3D7_0420300 AP2 domain 1 (GST-tagged)", 9.64),
    ("GGAACTTATTTTTATACACACATATGTGCATATTAT [CACACA_site629]", "PF3D7_0420300 AP2 domain 1 (GST-tagged)", 9.68),
    ("TATATACACAGACACACACACACATACACGCACATA [CACACA_site6909]", "PF3D7_0420300 AP2 domain 1 (GST-tagged)", 10.3),
    ("TAAATAAATTATTTTCGTACTTATTTATTTTAATTA [XGTACX_site283]", "PF3D7_0420300 AP2 domain 1 (GST-tagged)", 9.03),
    ("CACATACAGACATACACACATACACATATACGCATA [CACACA_site1745]", "PF3D7_0420300 AP2 domain 1 (GST-tagged)", 9.86),
    ("AAATTATAAATACCTACACACTTATCAAAATAAATT [CACACA_site5280]", "PF3D7_0420300 AP2 domain 1 (GST-tagged)", 9.56),
    ("AATATAATATAATATAGTACGTAAAAATATTATACA [XGTACX_site2170]", "PF3D7_0420300 AP2 domain 1 (GST-tagged)", 9.47),
    ("CATACATACAGACACACACACATATATATATATATA [CACACA_site2920]", "PF3D7_0420300 AP2 domain 1 (GST-tagged)", 9.91),
    ("AAAAAAAAAAAACACACACACAATAGTATATAAATC [CACACA_site956]", "PF3D7_0420300 AP2 domain 1 (GST-tagged)", 10.3),
    ("TATATTAAAAAAAAATGTACATATATATAATATATA [XGTACX_site1935]", "PF3D7_0420300 AP2 domain 1 (GST-tagged)", 9.19),
    ("TATATATTATTTAAAACACACAAAAAAAAAAATTAT [CACACA_site89]", "PF3D7_0420300 AP2 domain 1 (GST-tagged)", 9.59),
    ("GATAATACATAAATTTATAAGTGGAAGAATAAATAA [CACACA_negctrl_site698]", "PF3D7_0420300 AP2 domain 1 (GST-tagged)", 9.32),
    ("TATACACATAGACACACACACATACACGCACATACA [CACACA_site6908]", "PF3D7_0420300 AP2 domain 1 (GST-tagged)", 10.1),
    ("TATTTTTCCATATGCACACACACCGTATATATAATA [CACACA_site1127]", "PF3D7_0420300 AP2 domain 1 (GST-tagged)", 10),
    ("GGCATGACTATCTGCACACATAAAAATAAGAAATAC [CACACA_site841]", "PF3D7_0420300 AP2 domain 1 (GST-tagged)", 9.56),
    ("TATTTTAATTTTTGTTGTACGCAAATGTGAGGGCAT [XGTACX_site4663]", "PF3D7_0420300 AP2 domain 1 (GST-tagged)", 9.17),
    ("TAATATATGTATTGCACACCTATAACCATTATTTCT [CACACA_site1498]", "PF3D7_0420300 AP2 domain 1 (GST-tagged)", 9.51),
    ("CATACCTATAGACACACACACACACGCACGCACAAA [CACACA_site6374]", "PF3D7_0420300 AP2 domain 1 (GST-tagged)", 10.2),
    ("AGTATACGCAGACACACACACACATATATATATATA [CACACA_site1735]", "PF3D7_0420300 AP2 domain 1 (GST-tagged)", 9.98),
    ("TTTTCTTTCTTGTTTCGTATATTATAAAAAAAAAAG [CACACA_negctrl_site854]", "PF3D7_0420300 AP2 domain 1 (GST-tagged)", 8.96),
    ("ATAAATAATATAAATACACACTAAAAAAAATATATA [CACACA_site4456]", "PF3D7_0420300 AP2 domain 1 (GST-tagged)", 9.7),
    ("TATAAAATATAAATAAATAAATAAATATATATATAT [TGCATGCA_negctrl_site448]", "PF3D7_0420300 AP2 domain 1 (GST-tagged)", 9.11),
    ("AAAAATATGAAGACACAATATAGAAATAAAAATATA [XGTACX_negctrl_site244]", "PF3D7_0420300 AP2 domain 1 (GST-tagged)", 9.44),
    ("TATTTTATTTCAAATCTTAATAATTGTAATTCTTCA [XGTACX_negctrl_site442]", "PF3D7_0420300 AP2 domain 1 (GST-tagged)", 8.91),
    ("TAATAATAGTAAATATGTACATATATATATATATAG [XGTACX_site4602]", "PF3D7_0420300 AP2 domain 1 (GST-tagged)", 9.26),
]
